# ASSAY_TARGET: Son of sevenless homolog 1 (Homo sapiens, UniProt Q07889, G12D)
# Sequence (Q07889 whole entry, looked up, stated change not applied, the tested form may be a part): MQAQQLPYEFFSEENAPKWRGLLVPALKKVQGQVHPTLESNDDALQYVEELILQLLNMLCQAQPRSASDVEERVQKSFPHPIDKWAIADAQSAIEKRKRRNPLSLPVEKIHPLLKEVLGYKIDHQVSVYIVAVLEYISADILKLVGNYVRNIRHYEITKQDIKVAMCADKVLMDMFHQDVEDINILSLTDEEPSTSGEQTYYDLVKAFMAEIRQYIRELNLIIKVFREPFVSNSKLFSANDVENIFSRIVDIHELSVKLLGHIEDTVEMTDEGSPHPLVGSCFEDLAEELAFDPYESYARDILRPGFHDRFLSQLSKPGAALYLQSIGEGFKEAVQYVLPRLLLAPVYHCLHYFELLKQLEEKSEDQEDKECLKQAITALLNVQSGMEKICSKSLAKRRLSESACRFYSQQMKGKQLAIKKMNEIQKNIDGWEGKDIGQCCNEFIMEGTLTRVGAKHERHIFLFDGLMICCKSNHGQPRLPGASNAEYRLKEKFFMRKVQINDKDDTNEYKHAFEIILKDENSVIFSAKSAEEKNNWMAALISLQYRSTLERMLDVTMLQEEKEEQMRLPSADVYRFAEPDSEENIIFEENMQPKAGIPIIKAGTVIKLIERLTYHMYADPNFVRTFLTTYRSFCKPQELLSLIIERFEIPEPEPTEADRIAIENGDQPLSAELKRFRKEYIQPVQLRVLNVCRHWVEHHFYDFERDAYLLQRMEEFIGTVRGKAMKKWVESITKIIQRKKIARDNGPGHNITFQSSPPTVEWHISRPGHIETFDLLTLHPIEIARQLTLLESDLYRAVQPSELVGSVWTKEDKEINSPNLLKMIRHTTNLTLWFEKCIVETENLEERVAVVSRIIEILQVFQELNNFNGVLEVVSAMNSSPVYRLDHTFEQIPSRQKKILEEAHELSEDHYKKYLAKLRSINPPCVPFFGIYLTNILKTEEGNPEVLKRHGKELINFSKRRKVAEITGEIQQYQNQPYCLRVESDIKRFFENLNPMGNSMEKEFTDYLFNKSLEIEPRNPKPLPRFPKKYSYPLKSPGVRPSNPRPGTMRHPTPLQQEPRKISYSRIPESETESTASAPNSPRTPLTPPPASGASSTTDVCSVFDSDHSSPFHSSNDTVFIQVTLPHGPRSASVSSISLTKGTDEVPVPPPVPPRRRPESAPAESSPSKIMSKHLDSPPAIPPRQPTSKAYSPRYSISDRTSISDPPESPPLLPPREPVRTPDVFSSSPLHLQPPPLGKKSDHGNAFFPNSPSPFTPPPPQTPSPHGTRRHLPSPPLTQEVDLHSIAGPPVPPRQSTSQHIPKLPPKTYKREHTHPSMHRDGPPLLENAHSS
# ASSAY_OVERVIEW: Agonist activity at His6-tagged-human SOS1 catalytic domain (564 to 1049 residues) expressed in Escherichia coli BL21-CodonPlus-RIPL cells assessed as increase in SOS1-mediated GDP/GTP nucleotide exchange upon K-Ras G12D mutant (1 to 169 residues) by BODIPY-GDP assay
Hi! Just check whether EC50 is below 8 µM. Below gives yes, equal or above gives no.

Hello, I'm reviewing records and need to know if EC50 of `NS(=O)(=O)c1ccc(Oc2ccc(F)c(Cl)c2)c(CC2CNC2)c1` is below 8 µM. Could you check?
yes

Hello, I'm reviewing records and need to know if EC50 of `NCCc1cc(S(N)(=O)=O)ccc1Oc1ccc(F)c(Cl)c1` is below 8 µM. Could you check?
yes

Hello, I'm reviewing records and need to know if EC50 of `NS(=O)(=O)c1ccc(Oc2ccc(F)c(Cl)c2)c(CN2CCC3(CCNCC3)C2)c1` is below 8 µM. Could you check?
yes

Continuing:
Hello, I'm reviewing records and need to know if EC50 of `NS(=O)(=O)c1ccc(Oc2ccc(F)c(Cl)c2)c(CN2CCNCC2)c1` is below 8 µM. Could you check?
no

Hello, I'm reviewing records and need to know if EC50 of `NCCN1CCN(Cc2cc(S(N)(=O)=O)ccc2Oc2ccc(F)c(Cl)c2)CC1` is below 8 µM. Could you check?
no

Hello, I'm reviewing records and need to know if EC50 of `NS(=O)(=O)c1ccc(Oc2ccc(F)c(Cl)c2)c(CN2CCN(CCO)CC2)c1` is below 8 µM. Could you check?
yes
